The measurements presented in this section are drawn from ChEMBL document CHEMBL5291721.

Glutamate receptor ionotropic, NMDA 1 (Rattus norvegicus, UniProt P35439): recorded AC50 for assorted compounds; note: assay procedure not described here

compound: O=C(O)Cc1cn(-c2ccccc2)nc1-c1ccc(Cl)cc1
test_system: Glutamate receptor ionotropic, NMDA 1 (Rattus norvegicus, UniProt P35439); note: assay procedure not described here
AC50: > 30 µM
--
compound: CC(C)(Oc1ccc(C2CC2(Cl)Cl)cc1)C(=O)O (centres undefined) [CIPROFIBRATE]
test_system: Glutamate receptor ionotropic, NMDA 1 (Rattus norvegicus, UniProt P35439); note: assay procedure not described here
AC50: > 30 µM
--
compound: CN1CCc2cccc3c2[C@H]1Cc1ccc(O)c(O)c1-3
test_system: Glutamate receptor ionotropic, NMDA 1 (Rattus norvegicus, UniProt P35439); note: assay procedure not described here
AC50: > 10 µM
--
compound: NS(=O)(=O)c1cc(-c2nnn[nH]2)c(NCc2cccs2)cc1Cl [AZOSEMIDE]
test_system: Glutamate receptor ionotropic, NMDA 1 (Rattus norvegicus, UniProt P35439); note: assay procedure not described here
AC50: > 30 µM

----------
# maps each entry to its AC50
# test_system: Vasopressin V1a receptor (Homo sapiens); note: assay procedure not described here
# Sequence (P37288 whole entry): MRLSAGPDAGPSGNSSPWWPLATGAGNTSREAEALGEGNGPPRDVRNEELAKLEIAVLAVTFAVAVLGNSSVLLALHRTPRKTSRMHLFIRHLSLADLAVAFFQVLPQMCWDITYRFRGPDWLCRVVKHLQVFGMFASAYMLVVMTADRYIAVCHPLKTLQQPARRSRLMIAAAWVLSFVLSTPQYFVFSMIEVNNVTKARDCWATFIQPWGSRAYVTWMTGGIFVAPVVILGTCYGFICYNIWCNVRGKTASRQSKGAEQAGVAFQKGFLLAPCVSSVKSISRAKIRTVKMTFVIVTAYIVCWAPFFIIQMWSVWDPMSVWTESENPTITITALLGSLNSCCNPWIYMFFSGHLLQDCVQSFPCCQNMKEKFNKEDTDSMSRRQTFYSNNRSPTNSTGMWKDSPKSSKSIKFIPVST

compound: Cc1c(C(=O)Nc2ccc(N3C[C@@H](C)O[C@@H](C)C3)nc2)cccc1-c1ccc(OC(F)(F)F)cc1 [SONIDEGIB]
AC50: > 10 µM

compound: CN1CCCN=C1COC(=O)C(O)(c1ccccc1)C1CCCCC1 (stereo not given) [OXYPHENCYCLIMINE]
AC50: > 10 µM

compound: CC(C(O)c1ccc(O)cc1)N1CCC(Cc2ccccc2)CC1 (stereo not given) [IFENPRODIL]
AC50: > 30 µM

compound: CCc1ccc(CCOc2ccc(CC3SC(=O)NC3=O)cc2)nc1 (stereo not given) [PIOGLITAZONE]
AC50: > 30 µM

compound: CN(C)CCCN1c2ccccc2Sc2ccccc21 [PROMAZINE]
AC50: > 10 µM

compound: CCCCCCC(C)(C)c1cc(O)c2c(c1)OC(C)(C)C1CCC(=O)CC21 (stereo not given) [NABILONE]
AC50: > 30 µM

compound: CCCCC(C)(O)C/C=C/[C@H]1[C@H](O)CC(=O)[C@@H]1CCCCCCC(=O)OC (stereo not given in full) [MISOPROSTOL]
AC50: > 30 µM

compound: C[N+](C)(C)CC(=O)O [BETAINE]
AC50: > 30 µM

compound: CN(C)[C@@H]1C(O)=C(C(N)=O)C(=O)[C@@]2(O)C(O)=C3C(=O)c4c(O)ccc(Cl)c4[C@@H](O)[C@H]3C[C@@H]12 [DEMECLOCYCLINE]
AC50: > 10 µM

compound: CC(Cc1ccccc1)NCCC(c1ccccc1)c1ccccc1 (stereo not given) [PRENYLAMINE]
AC50: > 30 µM

compound: CC(=O)c1ccc2c(c1)N(CCCN1CCN(CCO)CC1)c1ccccc1S2 [ACETOPHENAZINE]
AC50: > 30 µM

compound: CCC1(C2=CCCCCC2)C(=O)NC(=O)NC1=O [HEPTABARBITAL]
AC50: > 10 µM

compound: O=C(Nc1ccccc1)OCC(CN1CCCCC1)OC(=O)Nc1ccccc1 (stereo not given) [DIPERODON]
AC50: > 10 µM

compound: COc1ccc(C(=O)NCc2ccc(OCCN(C)C)cc2)cc1OC [ITOPRIDE]
AC50: > 30 µM

compound: CN1CC(=O)N2[C@H](c3ccc4c(c3)OCO4)c3[nH]c4ccccc4c3C[C@@H]2C1=O
AC50: > 30 µM

compound: O=C1CN=C(c2ccccc2)c2cc(Cl)ccc2N1CC(F)(F)F [HALAZEPAM]
AC50: > 30 µM

compound: C#C[C@]1(O)CC[C@H]2[C@@H]3CCc4cc(O)ccc4[C@H]3CC[C@@]21C [ETHINYL ESTRADIOL]
AC50: > 10 µM

compound: CCCCOc1cc(C(=O)NCCN(CC)CC)c2ccccc2n1 [DIBUCAINE]
AC50: > 30 µM

compound: Nc1ncnc2c1ncn2[C@@H]1O[C@H](COP(=O)(O)O)[C@@H](O)[C@H]1O [ADENOSINE PHOSPHATE]
AC50: > 30 µM

compound: CC(C)[N+](C)(CCC(C(N)=O)(c1ccccc1)c1ccccc1)C(C)C [ISOPROPAMIDE]
AC50: > 10 µM

compound: O=C(CCCCC(=O)Nc1c(I)cc(I)c(C(=O)O)c1I)Nc1c(I)cc(I)c(C(=O)O)c1I [IODIPAMIDE]
AC50: > 10 µM

compound: OCCN1CCN(CCCN2c3ccccc3C=Cc3ccccc32)CC1 [OPIPRAMOL]
AC50: > 30 µM

compound: NS(=O)(=O)c1cc(Cl)c(Cl)c(S(N)(=O)=O)c1 [DICHLORPHENAMIDE]
AC50: > 10 µM

compound: COc1cc2c(cc1OC)C(=O)C(CC1CCN(Cc3ccccc3)CC1)C2 (stereo not given) [DONEPEZIL]
AC50: > 30 µM

compound: O=C(OCCN1CCOCC1)c1cccnc1Nc1cccc(C(F)(F)F)c1 [MORNIFLUMATE]
AC50: > 30 µM

compound: CCc1nn(CCCN2CCN(c3cccc(Cl)c3)CC2)c(=O)n1CCOc1ccccc1 [NEFAZODONE]
AC50: > 10 µM

compound: CCCCCN(C)CCC(O)(P(=O)(O)O)P(=O)(O)O [IBANDRONIC ACID]
AC50: > 30 µM

compound: COc1cc(Nc2c(C#N)cnc3cc(OCCCN4CCN(C)CC4)c(OC)cc23)c(Cl)cc1Cl [BOSUTINIB]
AC50: 4.7 µM

compound: CN1C(=O)COc2c(C(=O)NC3CN4CCC3CC4)cc(Cl)cc21 (stereo not given) [AZASETRON]
AC50: > 30 µM

compound: CN1C(=O)CC(=O)N(c2ccccc2)c2cc(Cl)ccc21 [CLOBAZAM]
AC50: > 10 µM

compound: CCOC(=O)[C@H](CCc1ccccc1)N[C@H]1CCCN2CCC[C@@H](C(=O)O)N2C1=O [CILAZAPRIL]
AC50: > 30 µM

compound: CCC[C@@H]1C[C@@H](C(=O)N[C@@H]([C@H]2O[C@H](SC)[C@H](O)[C@@H](O)[C@H]2O)[C@H](C)Cl)N(C)C1 [CLINDAMYCIN]
AC50: > 10 µM

compound: CC(=O)OCC(=O)[C@@]12OC3(CCCC3)O[C@@H]1C[C@H]1[C@@H]3CCC4=CC(=O)C=C[C@]4(C)[C@@]3(F)[C@@H](O)C[C@@]12C [AMCINONIDE]
AC50: > 10 µM

compound: OCc1cc([C@@H](O)CNCCCCCCOCCOCc2c(Cl)cccc2Cl)ccc1O [VILANTEROL]
AC50: > 30 µM

compound: CC(=O)N[C@H]1[C@H]([C@H](O)[C@H](O)CO)OC(C(=O)O)=C[C@@H]1N=C(N)N [ZANAMIVIR]
AC50: > 30 µM

----------
The following compounds have recorded AC50 on Neuronal acetylcholine receptor subunit alpha-4 (Homo sapiens).
Sequence (P43681 whole entry): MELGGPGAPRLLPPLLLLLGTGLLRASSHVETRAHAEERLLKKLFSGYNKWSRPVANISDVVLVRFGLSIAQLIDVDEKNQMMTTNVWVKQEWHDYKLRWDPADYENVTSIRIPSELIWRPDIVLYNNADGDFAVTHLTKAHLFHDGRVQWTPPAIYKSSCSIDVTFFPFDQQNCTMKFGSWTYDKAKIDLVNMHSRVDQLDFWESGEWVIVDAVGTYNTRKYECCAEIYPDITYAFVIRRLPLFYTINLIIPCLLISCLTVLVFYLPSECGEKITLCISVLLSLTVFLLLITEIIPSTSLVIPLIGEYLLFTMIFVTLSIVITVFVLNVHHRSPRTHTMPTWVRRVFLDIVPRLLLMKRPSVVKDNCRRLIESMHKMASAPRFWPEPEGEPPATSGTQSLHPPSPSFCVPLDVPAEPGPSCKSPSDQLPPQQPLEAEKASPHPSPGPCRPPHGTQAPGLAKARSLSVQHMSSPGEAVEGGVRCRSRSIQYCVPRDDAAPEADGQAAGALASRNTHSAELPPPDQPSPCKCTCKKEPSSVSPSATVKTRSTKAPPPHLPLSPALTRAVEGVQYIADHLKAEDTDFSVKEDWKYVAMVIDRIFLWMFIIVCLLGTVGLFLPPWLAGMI

compound: CCOC(=O)[C@H](CCc1ccccc1)N[C@@H](C)C(=O)N1CCC[C@H]1C(=O)O
AC50: > 10 µM
--
compound: C#C[C@]1(O)CC[C@H]2[C@@H]3CCC4=CCCC[C@@H]4[C@H]3CC[C@@]21C
AC50: > 30 µM
--
compound: Oc1ncnc2[nH]ncc12
AC50: > 10 µM
--
compound: Cc1c(O)c(=O)ccn1C
AC50: > 30 µM
--
compound: CC(C)C(=O)OCC(=O)[C@@]12O[C@H](C3CCCCC3)O[C@@H]1C[C@H]1[C@@H]3CCC4=CC(=O)C=C[C@]4(C)[C@H]3[C@@H](O)C[C@@]12C [CICLESONIDE]
AC50: > 10 µM
--
compound: CCC[C@@H]1C[C@@H](C(=O)N[C@@H]([C@H]2O[C@H](SC)[C@H](O)[C@@H](O)[C@H]2O)[C@H](C)Cl)N(C)C1
AC50: > 10 µM
--
compound: OCc1cc([C@@H](O)CNCCCCCCOCCOCc2c(Cl)cccc2Cl)ccc1O
AC50: > 30 µM
--
compound: CCCC(CCC)C(=O)O[C@H]1C[C@H]2CC[C@@H](C1)[N+]2(C)C
AC50: 26 µM

----------
# test_system: 5-hydroxytryptamine receptor 1A (Homo sapiens); note: assay procedure not described here
# Sequence (P08908 whole entry): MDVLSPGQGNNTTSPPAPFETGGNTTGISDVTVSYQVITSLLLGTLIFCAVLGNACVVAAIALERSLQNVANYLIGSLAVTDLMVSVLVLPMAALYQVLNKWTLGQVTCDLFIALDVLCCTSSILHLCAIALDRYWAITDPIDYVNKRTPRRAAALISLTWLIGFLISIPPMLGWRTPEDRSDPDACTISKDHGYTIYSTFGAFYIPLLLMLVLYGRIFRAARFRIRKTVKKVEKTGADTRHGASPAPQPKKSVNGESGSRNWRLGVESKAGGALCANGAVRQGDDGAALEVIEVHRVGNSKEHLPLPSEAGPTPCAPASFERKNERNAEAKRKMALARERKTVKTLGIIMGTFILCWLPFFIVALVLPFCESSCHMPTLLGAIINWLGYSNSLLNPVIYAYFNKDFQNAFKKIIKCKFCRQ
# Assay type: functional, cell-based
Overview of recorded AC50 for various compounds

compound: CN1C(=O)CC(C)(c2ccccc2)C1=O (centres undefined) [METHSUXIMIDE]
AC50: > 10 µM

compound: CC(C)NCC(O)COc1ccc(COCCOC(C)C)cc1 (centres undefined)
AC50: > 10 µM

compound: C[C@H]1C[C@@H]2[C@H]([C@@H](O)C[C@@]3(C)[C@H]2CC[C@]3(O)C(=O)COC(=O)CCC(=O)O)[C@@]2(C)C=CC(=O)C=C12 [METHYLPREDNISOLONE HEMISUCCINATE]
AC50: > 30 µM

compound: C[N+](C)(C)CCOC(N)=O
AC50: 5.95 µM

compound: OCCN1CCN(CCCN2c3ccccc3C=Cc3ccccc32)CC1
AC50: > 30 µM

compound: CN1C(=O)CC(c2ccccc2)C1=O (centres undefined) [PHENSUXIMIDE]
AC50: > 10 µM

compound: NC(CO)C(=O)NNCc1ccc(O)c(O)c1O (centres undefined) [BENSERAZIDE]
AC50: > 10 µM

compound: Cc1c(Cl)cccc1Nc1ccccc1C(=O)O
AC50: > 30 µM

compound: C#C[C@]1(O)CC[C@H]2[C@@H]3CCC4=CCCC[C@@H]4[C@H]3CC[C@@]21C
AC50: > 30 µM
